Please respond with reported pIC50 for every item in the list.
Test system: A431 (ATCC: CRL-1555)
assay-info: Test of cancer cell growth inhibition (SRB), A431
test-settings: Homo sapiens, A-431, 72 h, read-out: IC50 A431
Schema: pIC50 number; meaning minus log10 of the concentration expressed in molar units.

input: Name the reported pIC50 value associated with the compound COCC(=O)NCC(O)C(=O)Nc1ccc2ncnc(Nc3ccc(OCc4cccc(F)c4)c(Cl)c3)c2c1 (centres unmarked)
output: 6.49

input: Ok, now C=CC=CCn1ncc2cc(Nc3ncnc4cc(OC)c(NC(=O)[C@@H]5CCCN5C(=O)C=C)cc34)ccc21
output: 7.12

input: Ok, now COCCNCC(=O)NCCCC(=O)Nc1ccc2ncnc(Nc3ccc(OCc4cccc(F)c4)c(Cl)c3)c2c1
output: 6.44

input: Ok, now C=CC(=O)NCCC(=O)Nc1ccc2ncnc(Nc3ccc(OCc4cccnc4)c(Cl)c3)c2c1
output: 6.71

input: Ok, now C=CC(=O)NCCC(=O)Nc1cc2c(Nc3ccc(OCc4ccccn4)c(Cl)c3)ncnc2cc1OC
output: 7.77

input: Ok, now CS(=O)(=O)CCNCC(=O)NCCCC(=O)Nc1ccc2ncnc(Nc3ccc(OCc4cccc(F)c4)c(Cl)c3)c2c1
output: 6.19

input: Ok, now COCC(=O)N[C@H](C(=O)Nc1ccc2ncnc(Nc3ccc(OCc4cccc(F)c4)c(Cl)c3)c2c1)c1ccccc1
output: 6.60

input: Ok, now C=CC(=O)N1CCC[C@H]1C(=O)Nc1cc2c(Nc3ccc4c(cnn4Cc4ccccn4)c3)ncnc2cc1OC
output: 7.66

input: Ok, now C=CC(=O)N1CCC[C@H]1C(=O)Nc1ccc2ncnc(Nc3ccc(F)c(Cl)c3)c2c1
output: 6.34

input: Ok, now O=C(CCCNC(=O)c1ccoc1)Nc1ccc2ncnc(Nc3ccc(OCc4cccc(F)c4)c(Cl)c3)c2c1
output: 6.61

input: Ok, now O=C(CCNC(=O)c1ccoc1)Nc1ccc2ncnc(Nc3ccc(OCc4cccc(F)c4)c(Cl)c3)c2c1
output: 6.46

input: Ok, now C=CC(=O)N1CCC[C@H]1C(=O)Nc1ccc2ncnc(Nc3ccc(OCc4cccc(C)n4)c(Cl)c3)c2c1
output: 7.68

input: Ok, now C=CC(=O)NCC(=O)Nc1cc2c(Nc3ccc(OCc4cccc(F)c4)c(Cl)c3)ncnc2cc1OC
output: 7.80

input: Ok, now C=CC(=O)N1CC=C[C@H]1C(=O)Nc1cc2c(Nc3ccc(OCc4ccccn4)c(Cl)c3)ncnc2cc1OC
output: 6.92

input: Ok, now C=CC(=O)NCCC(=O)N(CCCN(C)C)c1ccc2ncnc(Nc3ccc(OCc4cccc(F)c4)c(Cl)c3)c2c1
output: 5.88

input: Ok, now C=CC(=O)N1CCCC1C(=O)Nc1ccc2ncnc(Nc3ccc(OCc4cccc(F)c4)c(Cl)c3)c2c1 (centres unmarked)
output: 6.80

input: Ok, now C=CC(=O)NCCC(=O)Nc1cc2c(Nc3ccc(OCc4ccccn4)c(C)c3)ncnc2cc1F
output: 7.30

input: Ok, now C=CC(=O)N(CC)[C@@H](C)C(=O)Nc1cc2c(Nc3ccc(OCc4ccccn4)c(Cl)c3)ncnc2cc1OC
output: 6.98

input: Ok, now C=C(C)C(=O)NCCC(=O)Nc1ccc2ncnc(Nc3ccc(OCc4cccc(F)c4)c(Cl)c3)c2c1
output: 6.92

input: Ok, now COCC(=O)NCCC(=O)Nc1ccc2ncnc(Nc3ccc(OCc4cccnc4)c(Cl)c3)c2c1
output: 6.06

input: Ok, now C=CC(=O)NCCCC(=O)Nc1ccc2ncnc(Nc3ccc(Oc4ccc(C)nc4)c(C)c3)c2c1
output: 6.10

input: Ok, now C=CC(=O)N[C@@H](C)C(=O)Nc1cc2c(Nc3ccc(OCc4ccccn4)c(Cl)c3)ncnc2cc1OC
output: 7.89

input: Ok, now COCC(=O)N[C@@H](Cc1ccccc1)C(=O)Nc1ccc2ncnc(Nc3ccc(OCc4cccc(F)c4)c(Cl)c3)c2c1
output: 6.50

input: Ok, now C=CC(=O)N1CCC[C@H]1C(=O)Nc1ccc2ncnc(Nc3ccc(OCc4cccnc4)c(Cl)c3)c2c1
output: 6.78

input: Ok, now C[S+]([O-])CC(=O)NCCC(=O)Nc1ccc2ncnc(Nc3ccc(OCc4cccc(F)c4)c(Cl)c3)c2c1 (centres unmarked)
output: 6.13

input: Ok, now C=CC(=O)N[C@H](C)C(=O)Nc1cc2c(Nc3ccc(OCc4ccccn4)c(Cl)c3)ncnc2cc1OCCOC
output: 7.96

input: Ok, now CN1CCN(CC(=O)NCCC(=O)Nc2ccc3ncnc(Nc4ccc(OCc5cccc(F)c5)c(Cl)c4)c3c2)CC1
output: 6.16

input: Ok, now C=CC(=O)NCCC(=O)Nc1ccc2ncnc(Nc3ccc(OCc4cccc(C)n4)c(Cl)c3)c2c1
output: 7.14
